Molecular target: UniProt:P53778
Sequence (P53778 whole entry, looked up): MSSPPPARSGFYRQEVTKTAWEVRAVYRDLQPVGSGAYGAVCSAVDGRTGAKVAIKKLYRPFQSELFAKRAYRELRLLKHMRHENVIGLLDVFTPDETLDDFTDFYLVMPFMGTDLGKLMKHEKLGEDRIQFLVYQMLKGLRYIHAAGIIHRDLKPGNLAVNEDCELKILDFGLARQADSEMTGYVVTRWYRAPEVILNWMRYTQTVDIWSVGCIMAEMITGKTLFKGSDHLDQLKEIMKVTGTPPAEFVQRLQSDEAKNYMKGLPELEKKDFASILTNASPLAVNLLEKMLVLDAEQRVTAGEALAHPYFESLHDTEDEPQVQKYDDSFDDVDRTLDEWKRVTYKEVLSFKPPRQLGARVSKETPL
Experiment: KINOMEscan competition binding
Conditions: compound 10.0 µM
Parameter: kinase still bound, per cent of control. Scope: all listed entries.
Observed property: kinase still bound, per cent of control (%)

1) O=C(NC1CC1)c1cccc(-c2ccc3c(NC(=O)C4CC4)n[nH]c3c2)c1: 24
2) Cc1ccc(C(=O)Nc2cccc(C(F)(F)F)c2)cc1Nc1cncc(C(N)=O)c1: 100
3) Cn1c(=O)n(-c2ccc(C(C)(C)C#N)cc2)c2c3cc(-c4cnc5ccccc5c4)ccc3ncc21: 100
4) CCCS(=O)(=O)Nc1ccc(F)c(C(=O)c2c[nH]c3ncc(-c4ccc(Cl)cc4)cc23)c1F: 93
5) C=CC(=O)Nc1cccc(Nc2nc(N[C@H]3CC[C@H](N(C)C)CC3)nc3c2ncn3C(C)C)c1: 96
6) Cc1ccc(NC(=O)c2cccc(C(C)(C)C#N)c2)cc1Nc1ccc2ncn(C)c(=O)c2c1: 45

* * *

Target: ADCK4 (human) (UniProt Q96D53)
Sequence (Q96D53 whole entry, looked up): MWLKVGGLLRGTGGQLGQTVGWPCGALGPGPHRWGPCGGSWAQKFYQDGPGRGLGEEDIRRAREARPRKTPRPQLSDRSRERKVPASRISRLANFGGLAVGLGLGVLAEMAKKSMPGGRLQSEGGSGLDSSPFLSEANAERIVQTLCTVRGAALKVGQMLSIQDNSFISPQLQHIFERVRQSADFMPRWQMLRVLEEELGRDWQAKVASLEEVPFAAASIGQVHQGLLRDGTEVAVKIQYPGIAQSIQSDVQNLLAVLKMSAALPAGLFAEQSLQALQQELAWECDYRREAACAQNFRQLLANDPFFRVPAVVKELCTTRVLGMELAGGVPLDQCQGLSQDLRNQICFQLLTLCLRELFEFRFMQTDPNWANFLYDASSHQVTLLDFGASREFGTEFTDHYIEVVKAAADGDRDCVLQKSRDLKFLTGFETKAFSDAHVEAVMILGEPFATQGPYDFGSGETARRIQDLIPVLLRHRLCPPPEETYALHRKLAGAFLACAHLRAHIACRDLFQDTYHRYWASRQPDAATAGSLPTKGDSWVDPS
Test: KINOMEscan competition binding
Settings: compound 10.0 µM
Observed property: kinase still bound, per cent of control (%)

1) C=CC(=O)Nc1cccc(Oc2nc(Nc3ccc(N4CCN(C)CC4)cc3OC)ncc2Cl)c1: 100
2) CCC(=O)N1CCN(c2ccc(-n3c(=O)ccc4cnc5ccc(-c6cnc7ccccc7c6)cc5c43)cc2C(F)(F)F)CC1: 15
3) C=CC(=O)Nc1cc(NC(=O)c2ccc(C)c(NC(=O)c3ccno3)c2)cc(C(F)(F)F)c1: 97
4) CC[C@@H]1C(=O)N(C)c2cnc(Nc3ccc(C(=O)NC4CCN(C)CC4)cc3OC)nc2N1C1CCCC1: 100
5) Cc1ccc2nc(NCCN)c3ncc(C)n3c2c1: 24
6) Cc1ccc(NC(=O)c2cccc(C(C)(C)C#N)c2)cc1Nc1ccc2ncn(C)c(=O)c2c1: 100
7) O=C1Nc2ccc(I)cc2/C1=C/c1cc(Br)c(O)c(Br)c1: 65
8) Cc1ccc(C(=O)Nc2cccc(C(F)(F)F)c2)cc1Nc1cncc(C(N)=O)c1: 100
9) Cc1cc([C@@H](C)Nc2ccccc2C(=O)O)c2nc(N3CCOCC3)cc(=O)n2c1: 79

* * *

Biological target: MAP4K3 (human) (UniProt Q8IVH8)
Sequence (Q8IVH8 whole entry, looked up): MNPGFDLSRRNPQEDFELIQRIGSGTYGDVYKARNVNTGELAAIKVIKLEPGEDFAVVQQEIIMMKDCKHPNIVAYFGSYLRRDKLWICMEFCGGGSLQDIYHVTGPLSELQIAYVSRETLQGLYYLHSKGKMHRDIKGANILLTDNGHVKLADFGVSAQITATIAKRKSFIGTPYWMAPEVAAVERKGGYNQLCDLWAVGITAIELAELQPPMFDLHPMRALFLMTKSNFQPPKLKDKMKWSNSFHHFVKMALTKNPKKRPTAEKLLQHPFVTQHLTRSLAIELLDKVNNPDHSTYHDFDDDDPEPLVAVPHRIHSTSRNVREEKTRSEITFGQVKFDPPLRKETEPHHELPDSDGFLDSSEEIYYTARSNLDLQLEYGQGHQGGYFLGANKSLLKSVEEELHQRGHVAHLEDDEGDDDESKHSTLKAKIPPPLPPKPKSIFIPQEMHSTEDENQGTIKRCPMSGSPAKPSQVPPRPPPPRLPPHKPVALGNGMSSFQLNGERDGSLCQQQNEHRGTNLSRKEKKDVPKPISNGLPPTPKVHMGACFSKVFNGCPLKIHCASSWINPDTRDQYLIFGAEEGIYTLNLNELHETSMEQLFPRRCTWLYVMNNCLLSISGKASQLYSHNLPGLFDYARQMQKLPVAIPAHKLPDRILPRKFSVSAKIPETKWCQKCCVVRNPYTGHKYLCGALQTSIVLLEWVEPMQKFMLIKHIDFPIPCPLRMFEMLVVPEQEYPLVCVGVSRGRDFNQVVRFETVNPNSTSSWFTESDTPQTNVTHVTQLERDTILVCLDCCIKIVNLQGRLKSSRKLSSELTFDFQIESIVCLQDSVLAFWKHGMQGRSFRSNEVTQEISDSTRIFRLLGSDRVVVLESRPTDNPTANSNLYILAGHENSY
Experiment: KINOMEscan competition binding
Conditions: compound 10.0 µM
Measured kinase still bound, per cent of control by item
Observed property: kinase still bound, per cent of control (%)

1. COc1cc(C(=O)NC2CCN(C)CC2)ccc1Nc1ncc2c(n1)N(C1CCCC1)C(C)CC(=O)N2C (stereo unspecified): 100
2. COc1cc(N2CCN(C)CC2)ccc1Nc1nc(N)c(C(=O)c2c(Cl)cccc2Cl)s1: 100
3. Cc1ccc(NC(=O)c2cccc(C(C)(C)C#N)c2)cc1Nc1ccc2ncn(C)c(=O)c2c1: 94
4. C=CC(=O)Nc1cccc(Oc2nc(Nc3ccc(N4CCN(C)CC4)cc3OC)ncc2Cl)c1: 29
5. O=C(NOC[C@H](O)CO)c1ccc(F)c(F)c1Nc1ccc(I)cc1F: 87
6. O=C(O)c1ccc(Nc2ncc3c(n2)-c2ccc(Cl)cc2C(c2c(F)cccc2F)=NC3)cc1: 97

* * *

Biological target: CDK4 CCND1 (human) (UniProt P11802+P24385)
Sequence (P11802 whole entry, looked up): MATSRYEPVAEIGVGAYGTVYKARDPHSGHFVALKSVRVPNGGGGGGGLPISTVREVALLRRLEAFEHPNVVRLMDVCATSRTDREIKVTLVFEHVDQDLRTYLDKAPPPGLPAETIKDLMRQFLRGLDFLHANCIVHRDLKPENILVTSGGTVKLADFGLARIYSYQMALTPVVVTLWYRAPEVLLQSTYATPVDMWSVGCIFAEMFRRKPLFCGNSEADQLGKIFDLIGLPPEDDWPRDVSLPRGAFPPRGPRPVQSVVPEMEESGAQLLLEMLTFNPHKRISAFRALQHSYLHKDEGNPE
Sequence (P24385 whole entry, looked up): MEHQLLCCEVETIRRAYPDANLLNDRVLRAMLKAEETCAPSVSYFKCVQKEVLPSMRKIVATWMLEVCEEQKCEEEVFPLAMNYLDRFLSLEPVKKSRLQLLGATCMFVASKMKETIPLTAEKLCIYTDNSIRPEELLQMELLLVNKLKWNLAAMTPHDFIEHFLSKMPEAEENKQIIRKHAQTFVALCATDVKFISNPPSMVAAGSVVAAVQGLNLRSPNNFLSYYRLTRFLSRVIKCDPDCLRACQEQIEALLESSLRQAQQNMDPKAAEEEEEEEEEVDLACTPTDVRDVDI
Experiment: KINOMEscan competition binding
Details: compound 10.0 µM
Rule: kinase still bound, per cent of control below 90% gives 1 (yes), anything at or above gives 0 (no).

1. N#Cc1c(NC(=O)c2cccc3ccccc23)sc2c1CCCC2: 0 (no)
2. CN(C)C/C=C/C(=O)Nc1cccc(Nc2ncc3c(n2)N(C)c2ccccc2C(=O)N3C)c1: 1 (yes)
3. Cc1ccc2nc(NCCN)c3ncc(C)n3c2c1: 1 (yes)
4. C=CC(=O)Nc1cc(NC(=O)c2ccc(C)c(NC(=O)c3ccno3)c2)cc(C(F)(F)F)c1: 0 (no)
5. Nc1ccc(-c2ccc3ncc4ccc(=O)n(-c5cccc(C(F)(F)F)c5)c4c3c2)cn1: 0 (no)
6. O=C1Nc2ccc(I)cc2/C1=C/c1cc(Br)c(O)c(Br)c1: 1 (yes)
7. CCOc1cc2ncc(C#N)c(Nc3ccc(OCc4ccccn4)c(Cl)c3)c2cc1NC(=O)/C=C/CN(C)C: 1 (yes)
8. CCN1CCN(Cc2ccc(Nc3ncc4c(n3)N(C)c3ccccc3C(=O)N4C)cc2C(F)(F)F)CC1: 1 (yes)
